Tested on: 186277-243-T-J2-PDC complex spheroid viability;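 also: spheroids exposed to drugs for 7 days; 100% = DMSO vehicle control viability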
Assay: Anticancer human tumor 186277-243-T-J2-PDC patient-derived colon adenocarcinoma cell line growth inhibition [GQUAD]; active = viability on the fitted dose curve at most 10% of control; inactive = the rest
Conditions: second compound 1 µM; first compound 0.316 µM
Possible outcomes: class 1 = active, class 0 = inactive

INSERT INTO results (compound, assigned_class) VALUES
  ('CC1COCCN1c1cc(-c2ccnn2C)c2ccnc(-c3ccn[nH]3)c2n1 (centres undefined) + Cc1cnc(CNC(=O)c2c(=O)c3ccc(N4CCCN(C)CC4)nc3n3c2sc2ccccc23)cn1', 'class 0'),
  ('Cc1[nH]c2ccccc2c1CCNCc1ccc(/C=C/C(=O)NO)cc1 + CN(C)c1ccc(Nc2c3ccc(NC(=O)CCN4CCCC4)cc3nc3cc(NC(=O)CCN4CCCC4)ccc23)cc1', 'class 1'),
  ('COc1ccc([C@@H](O)c2cc(-c3ncnc4cc(N5CCOCC5)ccc34)c(F)cc2Cl)nn1 + CN(C)c1ccc(Nc2c3ccc(NC(=O)CCN4CCCC4)cc3nc3cc(NC(=O)CCN4CCCC4)ccc23)cc1', 'class 0'),
  ('COc1cc(C2c3cc4c(cc3C(OC3OC5COC(C)OC5C(O)C3O)C3COC(=O)C23)OCO4)cc(OC)c1O (centres undefined) + Cc1[nH]c2ccc(F)cc2c1-c1nc2c3cccnc3c3ncccc3c2[nH]1', 'class 0');
